Target: KRas WT (Homo sapiens)
Construct: Biotinylated KRas (corresponding to amino acids 1-169, produced at Accelegan Inc.); biotin (biotinylated); purchased Accelegan Inc
Sequence (P01116 1-169 isoform P01116-2): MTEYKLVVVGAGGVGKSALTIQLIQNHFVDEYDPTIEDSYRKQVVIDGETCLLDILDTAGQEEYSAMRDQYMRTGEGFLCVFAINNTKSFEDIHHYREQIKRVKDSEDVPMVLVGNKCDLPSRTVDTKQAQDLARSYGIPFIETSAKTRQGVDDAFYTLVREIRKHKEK
Experiment: KRas binding assay, TR-FRET displacement of Cy5 labelled tracer
Conditions: 60-minute incubation at room temperature, 1% DMSO, pH 7.5
Labelling field: enter Y if recorded IC50 is less than 40 nM. Enter N if it equals or exceeds that cut-off.

Sample answers from the record:
compound	classification
Cc1ccn(C(=O)CCN(C)c2nc(OC[C@@]34CCCN3C[C@H](F)C4)nc3c(F)c(-c4ccc(F)c5sc(N)c(C#N)c45)c(Cl)cc23)n1 [Example 176]	Y
CN(CCCC(=O)Oc1ccc(F)cc1F)c1nc(OC[C@@]23CCCN2C[C@H](F)C3)nc2c(F)c(-c3ccc(F)c4sc(N)c(C#N)c34)c(Cl)cc12 [Example 271]	N
CCc1c(F)ccc2cc(O)cc(-c3ncc4c(N5CCC(C(=O)n6ccc(C(C)(C)C)n6)CC5)nc(OC[C@@]56CCCN5C[C@H](F)C6)nc4c3F)c12 [Example 75]	N

Ask: Report whether reported IC50 is lower than 40 nM (strictly) for Cc1ccn(C(=O)C2CCCN(c3nc(OC[C@@]45CCCN4C[C@H](F)C5)nc4c(F)c(-c5c(C#N)c(N)cc(C)c5C(F)(F)F)c(Cl)cc34)CC2)n1 (some centres unmarked) [Example 248]
Result: N

meta.source: patent US20260356856A1
